- System: human SMAD7 mRNA
- PROTOCOL_NOTES: Dose-dependent inhibition of human SMAD7 mRNA expression in Hep3B cells (Example 3, Study 1 and 2)
- Format: cell-based
- CONDITION_SUMMARY: electroporation, Study 2 (740-20000 nM)
Strand notation (5' to 3'): a small letter for the sugar, then the base; units joined by * are phosphorothioate-linked, units joined directly phosphodiester-linked; [ ] holds rarer units or linkages, { } end groups; capitals alone tell only the bases. k = constrained ethyl (cEt); [5mC] = 5-methylcytosine; d = 2'-deoxy (DNA)
Each entry below carries its reported IC50.
Expressed in µM, but write only the number.

// below: answered substances
SUBSTANCE: 799544 (kT*kT*k[5mC]*dA*dA*d[5mC]*dA*dA*dG*dT*dT*d[5mC]*d[5mC]*k[5mC]*kT*kA; antisense) [compound 799544]
STUDY_SYSTEM: human SMAD7 mRNA
VALUE_UNITS: µM
QUANTITATIVE_RESULT: 4
--
SUBSTANCE: 799322 (antisense kG*kG*kA*dG*dG*dG*dT*dA*dT*dG*d[5mC]*dA*d[5mC]*kA*k[5mC]*kT) [compound 799322]
STUDY_SYSTEM: human SMAD7 mRNA
VALUE_UNITS: µM
QUANTITATIVE_RESULT: 2

Switching to the query record.
Tested system human SMAD7 mRNA; IC50 recorded for 772560 (antisense kT*kT*kG*d[5mC]*dA*d[5mC]*dA*dG*d[5mC]*dA*dG*dG*dA*kG*kG*kG) [compound 772560] was 5

---

- Tested on: human SMAD7 mRNA
- PROTOCOL_NOTES: Antisense inhibition of human SMAD7 mRNA expression in Hep3B cells by 3-10-3 cEt gapmers, 10,000 nM, electroporation (Example 2)
- Format: cell-based
- CONDITION_SUMMARY: Hep3B cells, electroporation with 10,000 nM antisense oligonucleotide, approximately 24 hours, primer probe set RTS5062, relative to untreated control cells
Strand notation (5' to 3'): a small letter for the sugar, then the base; units joined by * are phosphorothioate-linked, units joined directly phosphodiester-linked; [ ] holds rarer units or linkages, { } end groups; capitals alone tell only the bases. k = constrained ethyl (cEt); [5mC] = 5-methylcytosine; d = 2'-deoxy (DNA)
Examples of substances with documented % Inhibition follow.

SUBSTANCE: 799074 (antisense k[5mC]*kA*kA*dA*dA*dA*dA*dG*dA*dA*dA*dG*dA*k[5mC]*kG*k[5mC]) [compound 799074]
% Inhibition: 9%
--
SUBSTANCE: 799116 (antisense kT*kA*kA*d[5mC]*dA*d[5mC]*dA*d[5mC]*dA*dG*dG*dA*dT*kG*kG*kG) [compound 799116]
% Inhibition: 34%
--
SUBSTANCE: 799022 (kG*kG*kG*dA*d[5mC]*dT*dG*d[5mC]*dA*dA*dA*d[5mC]*d[5mC]*kT*k[5mC]*kT; antisense) [compound 799022]
% Inhibition: 61%

Given item 799115 (antisense kA*k[5mC]*kA*d[5mC]*dA*dG*dG*dA*dT*dG*dG*dG*dA*kG*k[5mC]*kA) [compound 799115] , the value recorded as its % Inhibition is 40%

Query 798957 (antisense kA*kT*kT*d[5mC]*dT*dT*dT*dT*d[5mC]*dA*dT*dA*dA*kG*k[5mC]*kT) [compound 798957] yields % Inhibition of 28%

Sure, the documented % Inhibition for 799077 (antisense k[5mC]*kA*kG*dG*dA*dG*d[5mC]*dA*dG*dA*dT*dG*dG*k[5mC]*k[5mC]*kA) [compound 799077] is 28%

---

// % inhibition of Smad7 mRNA expression (compared to control), Kidney lookup, one value per entry
- Tested on: mouse Smad7 mRNA
- PROTOCOL_NOTES: Pharmacology: mouse Smad7 mRNA expression in liver, kidney, duodenum, ileum and colon after subcutaneous administration in CD-1 mice (Example 6)
- Format: in vivo
- CONDITION_SUMMARY: 50 mg/kg subcutaneous twice weekly for 7 weeks, kidney, normalized to GAPDH
Strand notation (5' to 3'): a small letter for the sugar, then the base; units joined by * are phosphorothioate-linked, units joined directly phosphodiester-linked; [ ] holds rarer units or linkages, { } end groups; capitals alone tell only the bases. k = constrained ethyl (cEt); [5mC] = 5-methylcytosine; d = 2'-deoxy (DNA)

Guide cases for % inhibition of Smad7 mRNA expression (compared to control), Kidney, answers given:
SUBSTANCE: 830025 (antisense TTTGTAAATCGAAAGC; 3-10-3 cEt gapmer, further chemistry not given here) [compound 830025]
RESULT: 45%

SUBSTANCE: 799144 (antisense kT*kT*kG*dG*dG*dT*dT*dA*dT*dG*dA*d[5mC]*dG*kG*kA*k[5mC]) [compound 799144]
RESULT: 3%

SUBSTANCE: 830037 (antisense CTATTGGCTGATCTGG; 3-10-3 cEt gapmer, further chemistry not given here) [compound 830037]
RESULT: 7%

SUBSTANCE: 790615 (CCAATGAGAATGCTTC; 3-10-3 cEt gapmer, further chemistry not given here) [compound 790615]
RESULT: 23%

SUBSTANCE: 829994 (GGAGGCAGGGCCGCGA; 3-10-3 cEt gapmer, further chemistry not given here) [compound 829994]
RESULT: 73%

798781 (CGTAAGATTCACAGCA; 3-10-3 cEt gapmer, further chemistry not given here) [compound 798781] tested on mouse Smad7 mRNA gave % inhibition of Smad7 mRNA expression (compared to control), Kidney: 18%

Param item: 830121 (AGAATCAAGCCCTGGC; 3-10-3 cEt gapmer, further chemistry not given here) [compound 830121] ; param system: mouse Smad7 mRNA; output % inhibition of Smad7 mRNA expression (compared to control), Kidney: 0%

---

Property: Spleen weight; scope: individual substances
- PROTOCOL_NOTES: Body and organ weights after oral gavage in CD-1 mice (Example 7)
- Assay type: in vivo
- CONDITION_SUMMARY: 500 mg/kg oral gavage once daily for 4 weeks, end of study
Your answer is read as g, so omit the unit and give the number.

The substance listed as 798781 (CGTAAGATTCACAGCA; 3-10-3 cEt gapmer, further chemistry not given here) [compound 798781] has a reported Spleen weight of 0.09

Entry 830121 (AGAATCAAGCCCTGGC; 3-10-3 cEt gapmer, further chemistry not given here) [compound 830121] ; Spleen weight = 0.10

829994 (GGAGGCAGGGCCGCGA; 3-10-3 cEt gapmer, further chemistry not given here) [compound 829994] has a reported Spleen weight of 0.11

Memo: 790615 (CCAATGAGAATGCTTC; 3-10-3 cEt gapmer, further chemistry not given here) [compound 790615] , reported Spleen weight: 0.11

Spleen weight in this record for 830037 (antisense CTATTGGCTGATCTGG; 3-10-3 cEt gapmer, further chemistry not given here) [compound 830037] : 0.10

Entry under test: 830025 (antisense TTTGTAAATCGAAAGC; 3-10-3 cEt gapmer, further chemistry not given here) [compound 830025] . Its Spleen weight was 0.10

---

- System: human SMAD7 mRNA
- PROTOCOL_NOTES: Dose-dependent inhibition of human SMAD7 mRNA expression in Hep3B cells (Example 3, Study 1 and 2)
- Format: cell-based
- CONDITION_SUMMARY: 2220 nM, electroporation, approximately 16 hours, Study 2
Strand notation (5' to 3'): a small letter for the sugar, then the base; units joined by * are phosphorothioate-linked, units joined directly phosphodiester-linked; [ ] holds rarer units or linkages, { } end groups; capitals alone tell only the bases. k = constrained ethyl (cEt); [5mC] = 5-methylcytosine; d = 2'-deoxy (DNA)
Criterion: % inhibition of SMAD7 mRNA expression meeting or surpassing 30%. Met: MET. Not met: NOT MET.

As a guide, the following entries are already answered.
SUBSTANCE: 830122 (kG*kA*kG*dA*dA*dT*d[5mC]*dA*dA*dG*d[5mC]*d[5mC]*d[5mC]*kT*kG*kG; antisense) [compound 830122]
ASSIGNED_LABEL: MET

SUBSTANCE: 829994 (GGAGGCAGGGCCGCGA; 3-10-3 cEt gapmer, further chemistry not given here) [compound 829994]
ASSIGNED_LABEL: MET

SUBSTANCE: 799671 (antisense kA*kG*kG*dT*dA*dT*dT*dT*dT*dT*dG*dA*dA*kG*kG*k[5mC]) [compound 799671]
ASSIGNED_LABEL: MET

SUBSTANCE: 829956 (k[5mC]*k[5mC]*kT*dT*dG*dT*d[5mC]*dA*d[5mC]*d[5mC]*d[5mC]*dG*dT*k[5mC]*kT*kG; antisense) [compound 829956]
ASSIGNED_LABEL: MET

SUBSTANCE: 790614 (kG*kA*kG*dA*dA*dT*dG*d[5mC]*dT*dT*d[5mC]*dT*d[5mC]*kT*kT*kG; antisense) [compound 790614]
ASSIGNED_LABEL: NOT MET

SUBSTANCE: 799608 (kA*k[5mC]*kG*dA*dT*d[5mC]*dA*dA*d[5mC]*dT*dT*d[5mC]*dT*kT*kG*kA; antisense) [compound 799608]
ASSIGNED_LABEL: MET

SUBSTANCE: 830053 (kG*kG*kG*dT*dG*dA*dG*dT*dA*dA*d[5mC]*d[5mC]*dA*kG*k[5mC]*kT; antisense) [compound 830053]
ASSIGNED_LABEL: MET

SUBSTANCE: 799118 (antisense kA*kG*kA*dG*d[5mC]*dT*dT*dA*dA*d[5mC]*dA*d[5mC]*dA*k[5mC]*kA*kG) [compound 799118]
ASSIGNED_LABEL: NOT MET

SUBSTANCE: 801051 (antisense kG*kT*kG*dT*dT*d[5mC]*dA*dA*d[5mC]*dA*dA*dT*dG*k[5mC]*kT*kT) [compound 801051]
ASSIGNED_LABEL: MET

SUBSTANCE: 798687 (antisense kG*kG*k[5mC]*dG*dA*dG*dG*dA*dG*dG*d[5mC]*dG*dA*kG*kG*kA) [compound 798687]
ASSIGNED_LABEL: MET

Could you please find out whether 829864 (antisense kG*kG*kG*dT*dA*dA*d[5mC]*dT*dG*d[5mC]*dT*dG*d[5mC]*kG*kG*kT) [compound 829864] has % inhibition of SMAD7 mRNA expression that meets 30% or exceeds it?
MET

# check: % inhibition of SMAD7 mRNA expression of 799471 (antisense k[5mC]*kA*k[5mC]*dA*dG*dA*dA*dA*dA*dG*d[5mC]*dT*d[5mC]*k[5mC]*kG*k[5mC]) [compound 799471] is greater than or equal to 30%
NOT MET

Is reported % inhibition of SMAD7 mRNA expression greater than or equal to 30% here: 800010 (kG*kT*kT*dA*dT*dT*dT*dA*dA*dT*dT*dA*d[5mC]*k[5mC]*k[5mC]*kT; antisense) [compound 800010]
NOT MET
